These entries and their values trace back to patent US9930890B2.

tested on: Plasmopara viticola; test: Plasmopara test (grapevine)/protective; assay type: in vivo; details: grapevine young plants, protective spray, active ingredient concentration 10 ppm, evaluation 6 days after inoculation; 0% = control, 100% = no infection
Entries and their Eff. %
assayEndpoint: Eff. % (%)

>>> reading("N#CCOc1ccccc1C1CC(c2csc(C3CCN(C(=O)Cn4nc(C(F)F)cc4C(F)F)CC3)n2)=NO1 (stereo not drawn)")
100
>>> reading("O=CNc1ccccc1C1CC(c2csc(C3CCN(C(=O)Nc4cc(C(F)F)ccc4C(F)F)CC3)n2)=NO1 (stereo not drawn)")
89
>>> reading("C/C=C/C(=O)Oc1ccccc1C1CC(c2csc(C3CCN(C(=O)Cn4nc(C(F)F)cc4C(F)F)CC3)n2)=NO1 (stereo not drawn)")
94
>>> reading("Cc1cc(C(F)(F)F)nn1CC(=O)N1CCC(c2nc(C3=NOC(c4ccccc4OS(C)(=O)=O)C3)cs2)CC1 (racemic)")
100
>>> reading("O=C(Oc1ccccc1C1CC(c2csc(C3CCN(C(=O)Cn4nc(C(F)F)cc4C(F)F)CC3)n2)=NO1)c1ccccc1 (stereo not drawn)")
94
>>> reading("CSCOc1ccccc1C1CC(c2csc(C3CCN(C(=O)Cn4nc(C(F)(F)F)cc4C)CC3)n2)=NO1 (stereo not drawn)")
95
>>> reading("Cc1cc(C(F)(F)F)nn1CC(=O)N1CCC(c2nc(C3=NOC(c4ccccc4OS(=O)(=O)C(F)(F)F)C3)cs2)CC1 (stereo not drawn)")
100
>>> reading("O=C(Cn1nc(C(F)F)cc1C(F)F)N1CCC(c2nc(C3=NOC(c4cccc(OS(=O)(=O)C5CC5)c4)C3)cs2)CC1 (stereo not drawn)")
94
>>> reading("CON=Cc1cccc(F)c1C1CC(c2csc(C3CCN(C(=O)Cn4nc(C(F)F)cc4C(F)F)CC3)n2)=NO1 (mixture of isomers)")
100
>>> reading("CS(=O)(=O)Oc1cccc(Cl)c1C1CC(c2csc(C3CCN(C(=O)Cn4nc(C(F)F)cc4C(F)F)CC3)n2)=NO1 (stereo not drawn)")
100
>>> reading("O=C(Oc1ccccc1C1CC(c2csc(C3CCN(C(=O)Cn4nc(C(F)F)cc4C(F)F)CC3)n2)=NO1)c1cccc(F)c1 (stereo not drawn)")
98
>>> reading("Cc1ccc(Cl)cc1NC(=O)N1CCC(c2nc(C3=NOC(c4c(Cl)cccc4OS(C)(=O)=O)C3)cs2)CC1 (racemic)")
100
>>> reading("CC(=O)OCc1ccccc1C1CC(c2csc(C3CCN(C(=O)Cn4nc(C(F)(F)F)cc4C)CC3)n2)=NO1 (racemic)")
90
>>> reading("Cc1cc(C(F)(F)F)nn1CC(=O)N1CCC(c2nc(C3=NOC(c4ccccc4OS(=O)(=O)C4CC4)C3)cs2)CC1 (racemic)")
100
>>> reading("CON=Cc1ccccc1C1CC(c2csc(C3CCN(C(=O)Cn4nc(C(F)F)cc4C(F)F)CC3)n2)=NO1 (stereo not drawn)")
100
>>> reading("O=C(Cn1nc(C(F)F)cc1C(F)F)N1CCC(c2nc(C3=NOC(c4ccccc4C=NO)C3)cs2)CC1 (mixture of isomers) [I-4]")
100
>>> reading("Cc1ccc(Cl)cc1NC(=O)N1CCC(c2nc(C3=NOC(c4ccccc4C=NO)C3)cs2)CC1 (mixture of isomers)")
100
>>> reading("Cc1cc(C(F)(F)F)nn1CC(=O)N1CCC(c2nc(C3=NOC(c4c(F)cccc4OCC#N)C3)cs2)CC1 (stereo not drawn)")
99
>>> reading("O=C(Cn1nc(C(F)F)cc1C(F)F)N1CCC(c2nc(C3=NOC(c4cc(F)ccc4OS(=O)(=O)C4CC4)C3)cs2)CC1 (stereo not drawn)")
100
>>> reading("O=CNc1ccccc1C1CC(c2csc(C3CCN(C(=O)Cc4cc(C(F)F)ccc4C(F)F)CC3)n2)=NO1 (stereo not drawn)")
73
>>> reading("CON=Cc1cccc(F)c1C1CC(c2csc(C3CCN(C(=O)Cn4nc(C(F)(F)F)cc4C)CC3)n2)=NO1 (mixture of isomers)")
100
>>> reading("COCCS(=O)(=O)Cc1ccccc1C1CC(c2csc(C3CCN(C(=O)Cn4nc(C(F)F)cc4C(F)F)CC3)n2)=NO1 (racemic)")
90
>>> reading("O=C(Cn1nc(C(F)F)cc1C(F)F)N1CCC(c2nc(C3=NOC(c4cccc(C=NO)c4)C3)cs2)CC1 (mixture of isomers)")
100
>>> reading("CON=Cc1cccc(C2CC(c3csc(C4CCN(C(=O)Cn5nc(C(F)(F)F)cc5C)CC4)n3)=NO2)c1 (mixture of isomers)")
81
>>> reading("CCS(=O)(=O)Oc1cccc(C2CC(c3csc(C4CCN(C(=O)Cn5nc(C(F)F)cc5C(F)F)CC4)n3)=NO2)c1 (stereo not drawn)")
93
>>> reading("O=C(Cn1nc(C(F)F)cc1C(F)F)N1CCC(c2nc(C3=NOC(c4ccccc4OS(=O)(=O)C(F)(F)F)C3)cs2)CC1 (stereo not drawn)")
100
>>> reading("O=C(Cn1nc(C(F)F)cc1C(F)F)N1CCC(c2nc(C3=NOC(c4ccccc4C=NO)C3)cs2)CC1 (mixture of isomers) [I-35]")
100
